Values compiled from PubChem BioAssay (NCI).

Test system: NCI-H460 lung
Test: NCI tumour cell line growth inhibition, 48 h
Below, each entry is listed alongside its reported TGI.

Record excerpt, results attached:
[
  {
    "COMPOUND": "C/C(=C\\CO)CC/C=C(\\C)CNc1c(F)c(F)c(F)c(F)c1F",
    "MEASURED VALUE": "> 100 µM"
  },
  {
    "COMPOUND": "Cc1cc(=O)[nH]c(NNC(C#N)c2cccc(O)c2)n1 (stereo not given)",
    "MEASURED VALUE": "> 100 µM"
  },
  {
    "COMPOUND": "O=c1n(CC2CO2)c(=O)n(CC2CO2)n1CC1CO1 (stereo not given)",
    "MEASURED VALUE": "30.8 µM"
  },
  {
    "COMPOUND": "COC(=O)Nc1nc2ccc(S(=O)c3ccccc3)cc2[nH]1 (stereo not given)",
    "MEASURED VALUE": "> 100 µM"
  },
  {
    "COMPOUND": "O=C(O)CCC(NC(=O)c1ccc(OCc2nc3cc(C(F)(F)F)ccc3nc2-c2ccccc2)cc1)C(=O)O (stereo not given)",
    "MEASURED VALUE": "> 100 µM"
  }
]

Prompt line: Note down TGI recorded for COc1c2c(cc3c1C(=O)c1c(O)cccc1C3=O)CC(O)CC2 (stereo not given)
Response line: > 100 µM

Prompt line: Note down TGI recorded for `CC(=O)NC1=C(NCC(C)(C)C)C(=O)c2ccccc2C1=O`
Response line: > 100 µM

Prompt line: Note down TGI recorded for `O=C(CSC(=S)N1CCCCC1)Nc1nc2c(s1)CCCC2`
Response line: > 100 µM

Prompt line: Note down TGI recorded for CC(C)c1ccc(C(C)C(=O)N(CC2=C(C(C)c3ccccn3)c3ccccc3C2)C(C)C)cc1 (stereo not given)
Response line: 8.35 µM

Prompt line: Note down TGI recorded for `CC(C)=C1C(=O)C[C@]2(C)C[C@H]3O[C@]3(C)CC[C@@H]3O[C@@]3(C)CC[C@@H]12`
Response line: > 50 µM
